Molecular target: H1 hemagglutinin (A/Solomon Islands/3/2006) (influenza A virus A/Solomon Islands/3/2006)
Assay: ELISA on coated HA, relative Kd (4-parameter fit)
Value kind: pKd
Bear in mind: pKd is minus log10 of a mol/L concentration; give just that figure.

// field: pKd; key: Ab 038 (antibody, V domains shown) VH: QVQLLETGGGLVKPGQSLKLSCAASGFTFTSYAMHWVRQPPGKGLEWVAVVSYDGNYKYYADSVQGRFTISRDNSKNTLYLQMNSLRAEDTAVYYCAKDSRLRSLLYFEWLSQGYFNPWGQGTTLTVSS VL: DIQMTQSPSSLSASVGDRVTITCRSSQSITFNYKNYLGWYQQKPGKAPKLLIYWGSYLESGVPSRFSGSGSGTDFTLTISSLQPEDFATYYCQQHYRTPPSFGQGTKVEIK ; value = 10.19
